# Test system: SK-MEL-28 melanoma
# Experiment: NCI tumour cell line growth inhibition, 48 h
Measure name: TGI

Worked cases, answers included:
Cc1cc(C)c(NS(=O)c2cccc(C(F)(F)F)c2)c(C)c1 (centres undefined)
> 100 µM
c1ccc2sc(SSSc3nc4ccccc4s3)nc2c1
> 100 µM
C/C(O)=C(\C=N\C(=S)N=Nc1c(O)[nH]c2ccccc12)C(=O)Nc1ccccc1C
> 100 µM
CC(Br)CN1CCOCC1 (centres undefined)
> 100 µM

Query: Param item = Cc1cc(=O)oc2c1cc1ccc3cccc4ccc2c1c34 ; retrieve measured TGI.
Response: > 100 µM

Query: Param item = C[N+](C)(C)CC(=O)N/N=C(\Cc1nc2ccc([N+](=O)[O-])cc2[nH]c1=O)C(=O)Nc1nc2ccc([N+](=O)[O-])cc2s1 ; retrieve measured TGI.
Response: > 100 µM

Query: Param item = c1ccc(C2=NOC3C4CCC(C4)C23)cc1 (centres undefined) ; retrieve measured TGI.
Response: > 100 µM

Query: Param item = C/C(=N\NC(=O)c1ccncc1)c1sc(-n2nc(-c3ccccc3)cc2-c2ccccc2)nc1C ; retrieve measured TGI.
Response: > 31.6 µM

Query: Param item = CC1OC(n2cc(C(F)(F)F)c(=O)[nH]c2=O)C=CC1=O (centres undefined) ; retrieve measured TGI.
Response: 38.2 µM

Query: Param item = CSC1=NN(C(C)=O)C(C(OC(C)=O)C(OC(C)=O)C(OC(C)=O)C(COC(C)=O)OC(C)=O)S1 (centres undefined) ; retrieve measured TGI.
Response: > 100 µM
